- Target under test: κ opioid receptor (Homo sapiens (Human), UniProt P41145)
- Assay comment: κ-opioid receptor [35S]GTPγS functional assay, U-2 OS cells
- Type: biochemical
- Experimental context: GTPγS
Endpoint label: pEC50
As a rule, pEC50 stands for the negative log10 of the concentration, concentration in M.

// pEC50 lookup, compound = O=C1C[C@]23CCN(CC4CC4)[C@H](Cc4ccc(O)cc42)[C@@H]3CN1 [Compound 7] , result: 9.68

// pEC50 lookup, compound = O=C(O)CN1CC[C@]23CCN(CC4CC4)[C@H](Cc4ccc(O)cc42)[C@@H]3C1 [Compound 15] , result: 8.26

// pEC50 lookup, compound = Oc1ccc(CN2CC[C@]34CCN(CC5CC5)[C@H](Cc5ccc(O)cc53)[C@@H]4C2)cc1 [Compound 12] , result: 8.19

// pEC50 lookup, compound = NC(=O)CN1C[C@H]2[C@H]3Cc4ccc(O)cc4[C@@]2(CCN3CC2CC2)CC1=O [Compound 4] , result: 8.78

// pEC50 lookup, compound = NC(=O)CN1CC[C@]23CCN(CC4CC4)[C@H](Cc4ccc(O)cc42)[C@@H]3C1 [Compound 11] , result: 9.04

// pEC50 lookup, compound = C[C@H](N)C(=O)N1CC[C@]23CCN(CC4CC4)[C@H](Cc4ccc(O)cc42)[C@@H]3C1 [Compound 14] , result: 9.80

====

- Target under test: UniProt P41145
- Assay comment: κ-opioid receptor [35S]GTPγS functional assay, HEK-293 or CHO cells
- Assay type: biochemical
- Experimental context: relative to U69,593
Respond with met for Emax values of 60% and above, not met for values below.

**Q:** // inclusive: Emax at least 60%? input: Oc1ccc2c(c1)[C@@]13CCNC[C@H]1[C@@H](C2)N(CC1CC1)CC3
**A:** met

**Q:** // inclusive: Emax at least 60%? input: C[C@H](N)C(=O)N1CC[C@]23CCN(CC4CC4)[C@H](Cc4ccc(O)cc42)[C@@H]3C1
**A:** met

**Q:** // inclusive: Emax at least 60%? input: NC(=O)CN1C[C@H]2[C@H]3Cc4ccc(O)cc4[C@@]2(CCN3CC2CC2)CC1=O
**A:** met

**Q:** // inclusive: Emax at least 60%? input: O=C(O)CN1C[C@H]2[C@H]3Cc4ccc(O)cc4[C@@]2(CCN3CC2CC2)CC1=O
**A:** met

**Q:** // inclusive: Emax at least 60%? input: COc1ccc2c(c1)[C@@]13CCNC[C@H]1[C@@H](C2)N(CC1CC1)CC3
**A:** met

**Q:** // inclusive: Emax at least 60%? input: COc1ccc(CN2CC[C@]34CCN(CC5CC5)[C@H](Cc5ccc(OC)cc53)[C@@H]4C2)cc1
**A:** not met

**Q:** // inclusive: Emax at least 60%? input: NC(=O)CN1CC[C@]23CCN(CC4CC4)[C@H](Cc4ccc(O)cc42)[C@@H]3C1
**A:** met

**Q:** // inclusive: Emax at least 60%? input: O=C1C[C@]23CCN(CC4CC4)[C@H](Cc4ccc(O)cc42)[C@@H]3CN1Cc1ccc(O)cc1
**A:** not met

**Q:** // inclusive: Emax at least 60%? input: COc1ccc(CN2C=C3[C@H]4Cc5ccc(OC)cc5[C@@]3(CCN4CC3CC3)CC2=O)cc1
**A:** met

**Q:** // inclusive: Emax at least 60%? input: COc1ccc2c(c1)[C@]13CCN(CC4CC4)[C@H](C2)[C@@H]1CNC(=O)C3
**A:** met

**Q:** // inclusive: Emax at least 60%? input: O=C(O)CN1CC[C@]23CCN(CC4CC4)[C@H](Cc4ccc(O)cc42)[C@@H]3C1
**A:** met

**Q:** // inclusive: Emax at least 60%? input: O=C1C[C@]23CCN(CC4CC4)[C@H](Cc4ccc(O)cc42)C3=CN1Cc1ccc(O)cc1
**A:** not met

**Q:** // inclusive: Emax at least 60%? input: O=C1C[C@]23CCN(CC4CC4)[C@H](Cc4ccc(O)cc42)[C@@H]3CN1
**A:** met

**Q:** // inclusive: Emax at least 60%? input: Oc1ccc(CN2CC[C@]34CCN(CC5CC5)[C@H](Cc5ccc(O)cc53)[C@@H]4C2)cc1
**A:** not met
